- target_or_test_system: Human PKMYT1 (Homo sapiens, UniProt Q99640)
- Construct: Human PKMYT1 75-362 was cloned as a TEV cleavable 6xHis fusion; 6xHis (TEV cleavable) (cleaved yes); made in house; host or cells: bacterial cells
- Sequence (Q99640 75-362): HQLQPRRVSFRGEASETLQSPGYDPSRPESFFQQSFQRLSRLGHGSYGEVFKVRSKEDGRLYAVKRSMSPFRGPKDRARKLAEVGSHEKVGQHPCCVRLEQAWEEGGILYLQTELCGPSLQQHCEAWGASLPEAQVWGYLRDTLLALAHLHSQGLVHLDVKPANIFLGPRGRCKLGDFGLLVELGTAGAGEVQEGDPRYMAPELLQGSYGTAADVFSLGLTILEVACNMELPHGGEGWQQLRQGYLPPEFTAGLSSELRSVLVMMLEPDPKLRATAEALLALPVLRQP
- run_description: PKMYT1 biochemical ADP-Glo enzymatic assay
- condition_info: ADP-Glo; 15 nM PKMYT1 kinase domain, 500 µM ATP, 60 minutes at 26° C.; banded
pIC50: −log10 of the molar value.
assay_metric: pIC50

The value of pIC50 measured for the compound Cc1ccc(O)c(C)c1NC(=O)c1cnc(NCc2nccn2C)s1 [BAA-362] turned out to be 4.96 to 6.00

Sample Cc1ccc(O)c(C)c1NC(=O)c1cnc(NCC2CC2)s1 [BAA-347] ; pIC50 observed: 6.00 to 7.30

The value of pIC50 measured for the compound Cc1ccc(O)c(C)c1NC(=O)c1cnc(Nc2ccn([C@@H]3CCN(C(=O)CC4CCCCC4)C3)n2)s1 [BAA-097] turned out to be 6.00 to 7.30

The recorded pIC50 for Cc1ccc(O)c(C)c1NC(=O)c1cnc(Nc2ccn([C@@H]3CCN(C(=O)Cc4cccnc4)C3)n2)s1 [BAA-102] is 6.00 to 7.30

Input Cc1cc(Nc2ncc(C(=O)Nc3c(C)ccc(O)c3C)s2)n(C2CCCC2)n1 [BAA-231] . Output pIC50: 6.00 to 7.30

For this compound ( Cc1ccc(O)c(C)c1NC(=O)c1cnc(Nc2ccn(CC(=O)N3CC4CCC(C3)N4)n2)s1 [BAA-230] ), measured pIC50 is > 7.30

Per the records, this compound ( Cc1ccc(O)c(C)c1NC(=O)c1cnc(Nc2ccn(CC(=O)NCCN3CCNCC3)n2)s1 [BAA-228] ) has pIC50 equal to > 7.30

pIC50 for Cc1cn(CC(=O)N2CCC2)nc1Nc1ncc(C(=O)Nc2c(C)ccc(O)c2C)s1 [BAA-374] is > 7.30

----------
- target_or_test_system: Human PKMYT1 (Homo sapiens, UniProt Q99640)
- Construct: Human PKMYT1 75-362 was cloned as a TEV cleavable 6xHis fusion; 6xHis (TEV cleavable) (cleaved yes); made in house; host or cells: bacterial cells
- run_description: PKMYT1 biochemical ADP-Glo enzymatic assay
- condition_info: PKMYT1 kinase domain 15 nM; ADP-Glo; banded values
- Procedure: Human PKMYT1 75-362 was cloned as a TEV cleavable 6xHis fusion in bacterial cells. After purification on a Ni++HiTrap Chelating HP column, the His-tag was cleaved using TEV protease. […] PKMYT1 biochemical assay: Inhibition of PKMYT1 was assessed using the ADP-Glo™ Max Detection System from Promega. […] Inhibition of PKMYT1 by small molecule inhibitors results in a retardation of luminescence above background. The intrinsic ATPase activity of PKMYT1 was assessed according to the following protocol. […]
pIC50: −log10 of the molar value. Counter-ions that a name gives are not always drawn.
assay_metric: pIC50

# pIC50 of `CC(=O)Nc1ccc(Nc2ncc(C(=O)Nc3c(C)ccc(O)c3C)s2)cc1` = > 7.30

// sample `CCc1cn(CCF)nc1Nc1ncc(C(=O)Nc2c(C)ccc(O)c2C)s1` , its pIC50 was > 7.30

Please fill in: pIC50 reported for Cc1c(O)cc(Br)c(C)c1NC(=O)c1cnc(Nc2nn(C3CCS(=O)(=O)C3)c(C)c2Br)s1 (stereo not drawn) = 4.96 to 6.00

Item: `Cc1ccc(O)c(C)c1NC(=O)c1cnc(Nc2cccc(-c3cnn(C(F)F)c3)n2)s1` | pIC50: > 7.30

According to the records, this compound COc1ccccc1Nc1ncc(C(=O)Nc2c(C)ccc(O)c2C)s1 [BAA-528, TFA salt] displays pIC50 of 6.00 to 7.30

Quick note, pIC50 for `Cc1ccc(O)c(C)c1NC(=O)c1cnc(Nc2nn(CC(F)(F)F)c3ccccc23)s1` landed at > 7.30

Measured pIC50 of `Cc1ccc(O)c(C)c1NC(=O)c1cnc(Nc2ccncn2)s1` : > 7.30

The reported value for `Cc1ccc(O)c(C)c1NC(=O)c1cnc(Nc2cn(C)nc2C)s1` in terms of pIC50 is 6.00 to 7.30

// `CCc1c(O)ccc(C)c1NC(=O)c1cnc(Nc2ccn(C)n2)s1` : pIC50 value = 6.00 to 7.30

----------
- target_or_test_system: WEE1 (Homo sapiens, UniProt P30291)
- Construct: purchased Thermo Fisher PR7373A
- Sequence (P30291 whole entry): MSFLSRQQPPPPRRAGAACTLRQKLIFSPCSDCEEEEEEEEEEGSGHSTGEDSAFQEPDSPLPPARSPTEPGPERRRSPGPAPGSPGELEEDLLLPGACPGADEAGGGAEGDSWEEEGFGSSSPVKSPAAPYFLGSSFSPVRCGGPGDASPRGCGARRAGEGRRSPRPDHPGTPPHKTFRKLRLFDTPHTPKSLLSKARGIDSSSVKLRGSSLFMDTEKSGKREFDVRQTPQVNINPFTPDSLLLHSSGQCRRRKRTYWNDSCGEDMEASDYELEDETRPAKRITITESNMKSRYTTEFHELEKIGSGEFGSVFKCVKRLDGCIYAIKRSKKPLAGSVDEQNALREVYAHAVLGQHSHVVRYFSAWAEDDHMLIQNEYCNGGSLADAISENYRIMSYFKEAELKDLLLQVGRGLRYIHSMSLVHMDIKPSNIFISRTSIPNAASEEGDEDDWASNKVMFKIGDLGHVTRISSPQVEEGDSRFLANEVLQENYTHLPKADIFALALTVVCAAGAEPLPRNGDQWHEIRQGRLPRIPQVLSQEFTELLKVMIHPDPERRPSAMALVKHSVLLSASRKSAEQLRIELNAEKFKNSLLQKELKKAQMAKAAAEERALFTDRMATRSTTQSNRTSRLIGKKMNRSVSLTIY
- run_description: Selectivity versus WEE1 assay (ADP-Glo enzymatic assay)
- Format: biochemical
- condition_info: fold difference in selectivity for PKMYT1 over WEE1; banded; ">N" = at least in this band but could be higher
Structures can show the parent of a compound that is named as a salt.
assay_metric: PKMYT1 vs. WEE1 selectivity

Examples from the recorded data:
compound: Cc1ccc(O)c(C)c1NC(=O)c1cnc(Nc2ccn(CC(=O)N3CCN(C)CC3)n2)s1 [BAA-034]
target_or_test_system: WEE1 (Homo sapiens, UniProt P30291)
PKMYT1 vs. WEE1 selectivity: X (100-<1000 fold)

compound: Cc1ccc(O)c(C)c1NC(=O)c1cnc(Nc2cccc(-c3cnn(C)c3)n2)s1 [BAA-390]
target_or_test_system: WEE1 (Homo sapiens, UniProt P30291)
PKMYT1 vs. WEE1 selectivity: X (100-<1000 fold)

compound: Cc1ccc(O)c(C)c1NC(=O)c1cnc(Nc2ccn([C@@H]3CCN(C(=O)C(C)(C)c4ccccc4)C3)n2)s1 [BAA-094]
target_or_test_system: WEE1 (Homo sapiens, UniProt P30291)
PKMYT1 vs. WEE1 selectivity: >X (100-<1000 fold)

compound: CCOc1ccc(-n2cc(C)c(Nc3ncc(C(=O)Nc4c(C)ccc(O)c4C)s3)n2)cn1 [BAA-369]
target_or_test_system: WEE1 (Homo sapiens, UniProt P30291)
PKMYT1 vs. WEE1 selectivity: X (100-<1000 fold)

# input for lookup
Field PKMYT1 vs. WEE1 selectivity (system: WEE1 (Homo sapiens, UniProt P30291)) for entry Cc1ccc(O)c(C)c1NC(=O)c1cnc(Nc2ccn(CC(=O)NC3CCN(C)CC3)n2)s1 [BAA-151, (hydrochloride)] = X (100-<1000 fold)

----------
Measured pIC50, listed per entry for reference.
- target_or_test_system: Human PKMYT1 (Homo sapiens, UniProt Q99640)
- Construct: Human PKMYT1 75-362 was cloned as a TEV cleavable 6xHis fusion; 6xHis (TEV cleavable) (cleaved yes); made in house; host or cells: bacterial cells
- run_description: PKMYT1 biochemical ADP-Glo enzymatic assay
- condition_info: ADP-Glo; 15 nM PKMYT1 kinase domain, 500 µM ATP, 60 minutes at 26° C.; banded
- Experimental: Human PKMYT1 75-362 was cloned as a TEV cleavable 6xHis fusion in bacterial cells. After purification on a Ni++HiTrap Chelating HP column, the His-tag was cleaved using TEV protease. […] PKMYT1 biochemical assay: Inhibition of PKMYT1 was assessed using the ADP-Glo™ Max Detection System from Promega. […] Inhibition of PKMYT1 by small molecule inhibitors results in a retardation of luminescence above background. The intrinsic ATPase activity of PKMYT1 was assessed according to the following protocol. […]
pIC50: −log10 of the molar value.

Observe how each entry below is paired with its result.
smi: Cc1cc(Nc2ncc(C(=O)Nc3c(C)ccc(O)c3C)s2)n(CC(C)C)n1
target_or_test_system: Human PKMYT1 (Homo sapiens, UniProt Q99640)
data_value: > 7.30
//
smi: Cc1ccc(O)c(C)c1NC(=O)c1cnc(Nc2cc3n(n2)CCN(C)C3=O)s1
target_or_test_system: Human PKMYT1 (Homo sapiens, UniProt Q99640)
data_value: > 7.30
//
smi: Cc1ccc(O)c(C)c1NC(=O)c1cnc(Nc2ccn([C@@H]3CCN(C(=O)Cc4ccncc4)C3)n2)s1
target_or_test_system: Human PKMYT1 (Homo sapiens, UniProt Q99640)
data_value: 6.00 to 7.30
//
smi: CCC(=O)N1CCC(CNc2ncc(C(=O)Nc3c(C)ccc(O)c3C)s2)CC1
target_or_test_system: Human PKMYT1 (Homo sapiens, UniProt Q99640)
data_value: 6.00 to 7.30

Attention now turns to another entry.
So the reported pIC50 for `Cc1cccc(CNc2ncc(C(=O)Nc3c(C)ccc(O)c3C)s2)c1O` , on Human PKMYT1 (Homo sapiens, UniProt Q99640), turned out to be 6.00 to 7.30

----------
IC50 reference
- target_or_test_system: Human PKMYT1 (Homo sapiens)
- Construct: Human PKMYT1 75-362 was cloned as a TEV cleavable 6xHis fusion; 6xHis (TEV cleavable) (cleaved yes); made in house; host or cells: bacterial cells
- run_description: PKMYT1 biochemical ADP-Glo enzymatic assay
- condition_info: ADP-Glo; 15 nM PKMYT1 kinase domain, 500 µM ATP, 60 minutes at 26° C.; banded

Previously resolved entries follow.
compound: Cc1ccc(O)c(C)c1NC(=O)c1cnc(Nc2cccc(-c3ccc(F)cc3)n2)s1
assay_metric: IC50
data_value: 50 to 1000 nM
//
compound: Cc1ccc(O)c(C)c1NC(=O)c1cnc(Nc2ccn(CC(=O)N3CCNC(=O)C3)n2)s1
assay_metric: IC50
data_value: < 50 nM
//
compound: CCNC(=O)Cn1nc(Nc2ncc(C(=O)Nc3c(C)ccc(O)c3C)s2)cc1C
assay_metric: IC50
data_value: < 50 nM
//
compound: Cc1ccc(O)c(C)c1NC(=O)c1cnc(Nc2nc(C(F)(F)F)cs2)s1
assay_metric: IC50
data_value: 50 to 1000 nM
//
compound: Cc1ccc(O)c(C)c1NC(=O)c1cnc(Nc2ccn(CC(=O)N3CC4C(C3)C4(F)F)n2)s1 (centres unmarked)
assay_metric: IC50
data_value: < 50 nM
//
compound: Cc1ccc(O)c(C)c1NC(=O)c1cnc(Nc2ccn(CC(=O)NC(C)C)n2)s1
assay_metric: IC50
data_value: 50 to 1000 nM

Per the record, `Cc1ccc(O)c(C)c1NC(=O)c1cnc(Nc2nn(C)cc2-c2ccccc2)s1` has IC50 of 50 to 1000 nM

Just so you know, measured IC50 for `CCN(c1ccc(F)cc1)c1cccc(Nc2ncc(C(=O)Nc3c(C)ccc(O)c3C)s2)n1` came out at 1000 to 11000 nM
